# method-description: ATG_VDRE_CIS: Attagene CIS-FACTORIAL HepG2 Assay for human Vitamin D Receptor Element (VDRE) (AID 2282968)
# experimental-context: HepG2 VDRE cis-reporter transcription, actives raise or lower the signal
The source made the active and inactive calls. The calls were made as follows: active = hit-call score of the fitted dose curve at least 0.9, where 1 is the maximum; inactive = score below 0.9.
Can you answer with just one of these options? active, inactive

# fetch the recorded call for CCCCCCCCCCCSCC(=O)O here
active

# fetch the recorded call for CCCCOCCOC(=O)COc1nc(Cl)c(Cl)cc1Cl here
inactive

# fetch the recorded call for CCCCCCCC/C=C\CCCCCCCC(=O)OCCO here
inactive

# fetch the recorded call for CCCCC/C=C\CCC=O here
inactive

###

# Read-out: Basic fibroblast growth factor (bFGF), FGF2 (gene 2247)
# method-description: BSK_MyoF_bFGF: BioMAP Diversity Plus: MyoF Assay for Basic fibroblast growth factor (bFGF) Biomarker Activity (AID 2284246)
# experimental-context: primary human lung fibroblasts
Activity calls are given as the source filed them. Rule for the calls: active = hit-call score of the fitted dose curve at least 0.9, where 1 is the maximum; inactive = score below 0.9.
Can you answer with just one of these options? T for active, F for inactive

See these solved cases before continuing.
- smiles-string: "S=C(NC1CCCCC1)NC1CCCCC1"
  class: "F"
- smiles-string: "c1ccc(-c2ccccn2)nc1"
  class: "F"
- smiles-string: "O=Nc1ccc(O)cc1"
  class: "F"
- smiles-string: "c1ccc2c(c1)ccc1cc3c(ccc4ccccc43)cc12"
  class: "F"
- smiles-string: "CCCCCCCCCCCCCCCC[N+](C)(C)CC"
  class: "T"
- smiles-string: "O=C(Cl)c1cc(C(=O)Cl)cc(C(=O)Cl)c1"
  class: "T"

# fetch the recorded call for CCCCNc1ccc(NCCCC)c2c1C(=O)c1ccccc1C2=O here
F

###

# method-description: ATG_BRE_CIS: Attagene CIS-FACTORIAL HepG2 Assay for human Bone Morphogenetic Protein (BMP) Response Element (BRE) (AID 2282933)
# experimental-context: HepG2 BMP response element reporter, Attagene transcription factor profiling; actives raise or lower the signal
Active and inactive are the calls of the source. How the source made its calls: active means hit-call score of the fitted dose curve at least 0.9, where 1 is the maximum; inactive means score below 0.9.
Can you answer with just one of these options? t (active), f (inactive)

See these solved cases before continuing.
- compound: "CCCCC/C=C\\C/C=C\\CCCCCCCC(=O)OC"
  class: "t"
- compound: "Cc1cc(C)c(C)c(O)c1"
  class: "f"
- compound: "CCCCCCC(O)CO (centres undefined)"
  class: "f"
- compound: "O=C(Nc1cccc(C(F)(F)F)c1)c1cc(Br)cc(Br)c1O"
  class: "t"
- compound: "C(=CC=Nc1ccccc1)C=CNc1ccccc1"
  class: "f"
- compound: "C[C@]12CCC(=O)C=C1CC[C@@H]1[C@@H]2C(=O)C[C@@]2(C)[C@H]1CC[C@]2(O)C(=O)CO"
  class: "f"
- compound: "O=C1OC(=O)c2cc(Oc3ccc4c(c3)C(=O)OC4=O)ccc21"
  class: "f"
- compound: "Cc1cnc(NC(=O)C2=C(O)c3ccccc3S(=O)(=O)N2C)s1"
  class: "f"

# fetch the recorded call for C1CN(SSN2CCOCC2)CCO1 here
f

# fetch the recorded call for CNC(=S)N(C)C here
f

# fetch the recorded call for CC=CC(=O)N(CC)c1ccccc1C here
f

# fetch the recorded call for O=S1(=O)OC(c2ccc(O)cc2)(c2ccc(O)cc2)c2ccccc21 here
f

# fetch the recorded call for O=Cc1ccc(CO)o1 here
f

# fetch the recorded call for CCC(C)C=O (centres undefined) here
f
